subject-of-test: human CB2 receptor (Homo sapiens, UniProt P34972)
Construct: expressed in transfected cells; host or cells: SK-N-MC cells, stably transfected with pcDNA3 CB-2 (human); semi-purified membrane pellet
Sequence (P34972 whole entry): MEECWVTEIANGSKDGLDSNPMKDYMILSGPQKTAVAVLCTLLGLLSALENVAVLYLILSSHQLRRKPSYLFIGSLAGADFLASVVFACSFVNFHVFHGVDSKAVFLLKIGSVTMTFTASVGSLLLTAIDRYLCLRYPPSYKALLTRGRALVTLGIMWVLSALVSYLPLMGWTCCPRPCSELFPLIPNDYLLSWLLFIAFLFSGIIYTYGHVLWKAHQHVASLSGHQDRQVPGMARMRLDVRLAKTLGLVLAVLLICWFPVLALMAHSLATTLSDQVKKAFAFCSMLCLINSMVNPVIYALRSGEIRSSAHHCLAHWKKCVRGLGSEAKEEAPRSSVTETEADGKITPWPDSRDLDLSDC
assay-procedure: Cannabinoid CB2 receptor binding assay ([3H]-CP-55,940 displacement, SK-N-MC cell membranes)
setup-conditions: 1.5 h; test concentration of 0.2 μM; radioligand CP-55,940 0.2 nM; read-out: Cannabinoid CB2 Receptor Binding, percent inhibition
metric: inhibition at 0.2 µM (%)

{"columns": ["compound", "metric", "units", "number"],
 "data": [
  ["N#Cc1c(C(=O)NN2CCCCC2)nn(-c2ccc(Cl)cc2Cl)c1-c1ccc(Cl)s1 [Cpd 23]", "inhibition at 0.2 µM", "%", 22],
  ["Cc1c(C(=O)N[C@@H](C)C2CCCCC2)nn(-c2ccc(Cl)cc2Cl)c1-c1ccc(Cl)s1 [Cpd 12]", "inhibition at 0.2 µM", "%", 40],
  ["Cc1ccc(-c2c(C)c(C(=O)N[C@H](C)c3ccccn3)nn2-c2ccc(Cl)cc2Cl)o1 [Cpd 56]", "inhibition at 0.2 µM", "%", 26],
  ["CCc1c(C(=O)N[C@@H](C)c2ccccn2)nn(-c2ccc(Cl)cc2Cl)c1-c1ccc(Br)s1 [Cpd 41]", "inhibition at 0.2 µM", "%", 45],
  ["Cc1c(C(=O)N[C@@H](C)c2ccccn2)nn(-c2ccc(Cl)cc2Cl)c1-c1cccs1 [Cpd 9]", "inhibition at 0.2 µM", "%", 8],
  ["C[C@@H](NC(=O)c1nn(-c2ccc(Cl)cc2Cl)c(-c2ccc(Cl)s2)c1C#N)C1CCCCC1 [Cpd 24]", "inhibition at 0.2 µM", "%", 13],
  ["CCc1c(C(=O)NN2CCC(O)CC2)nn(-c2ccc(Cl)cc2Cl)c1-c1ccc(Br)s1 [Cpd 51]", "inhibition at 0.2 µM", "%", 13],
  ["Cc1c(C(=O)N[C@H](C)C2CCCCC2)nn(-c2ccc(Cl)cc2Cl)c1-c1ccc(Cl)s1 [Cpd 13]", "inhibition at 0.2 µM", "%", 37]
]}
